METHOD NOTES: qHTS assay to identify small molecule antagonists of the estrogen receptor alpha (ER-alpha) signaling pathway - cell viability counter screen (AID 743074);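 further: HEK293 cells carrying ER-alpha-UAS-bla reporter stimulated with 17beta-estradiol; nearly all actives have a fitted effect of over 45% in size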
DETAILS: ERalpha-bla HEK293 viability, CellTiter-Glo luminescence, 18 h; series mostly up to 69.4 µM
Records with an inconclusive call do not appear. The source made the active and inactive calls. The call rests on the fitted dose curve.
Answer with one of the outcomes given here: active, inactive

Use the examples below as a reference point.
[[record]]
compound = "CCC(=O)O[C@@](Cc1ccccc1)(c1ccccc1)[C@@H](C)CN(C)C"
answer_label = "inactive"

[[record]]
compound = "O=C1C=C2C=C[C@@H]3C[C@@]2(O1)[C@H]1CCCCN31"
answer_label = "inactive"

[[record]]
compound = "O[C@H]1[C@H]2[C@H](O)CCCN2C[C@H]1O"
answer_label = "inactive"

[[record]]
compound = "COC(=O)[C@]12CCC(C)(C)C[C@H]1[C@H]1C(=O)C=C3[C@@]4(C)C=C(C#N)C(=O)C(C)(C)[C@@H]4CC[C@@]3(C)[C@]1(C)CC2"
answer_label = "active"

[[record]]
compound = "Oc1cccc[c]1[Hg][Cl]"
answer_label = "active"

[[record]]
compound = "CCC(C)(S(=O)(=O)CC)S(=O)(=O)CC"
answer_label = "inactive"

[[record]]
compound = "CO/C=C(/C(=O)OC)c1ccccc1Oc1cc(Oc2ccccc2C#N)ncn1"
answer_label = "active"

[[record]]
compound = "CN1[C@H]2CC[C@@H]1[C@@H](C(=O)O)[C@@H](OC(=O)c1ccccc1)C2"
answer_label = "inactive"


Incoming: Record lookup: outcome of this test for c1ccc2c(c1)Sc1ccccc1N2CC1CN2CCC1CC2 (stereo unspecified) ?
Outgoing: active

Incoming: Could you check what this test reported for Cc1cccc(C(C)c2cnc[nH]2)c1C (stereo unspecified) ?
Outgoing: inactive

Incoming: // return assay outcome for COC([CH2][Hg])CNC(=O)c1ccccc1OCC(=O)O (stereo unspecified)
Outgoing: inactive

Just for reference, PubChem BioAssay (Tox21) is where these values come from.
